# TARGET_OR_SYSTEM: T1, TNF-beta (human, UniProt P01374 35-205)
# T1 construct: also called TNFβ; Tumour Necrosis Factor-beta
# T1 sequence (looked up): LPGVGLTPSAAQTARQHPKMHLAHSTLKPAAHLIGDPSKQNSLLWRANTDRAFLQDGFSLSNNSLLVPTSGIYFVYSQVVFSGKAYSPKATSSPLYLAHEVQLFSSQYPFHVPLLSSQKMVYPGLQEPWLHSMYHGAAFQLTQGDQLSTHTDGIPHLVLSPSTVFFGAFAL
# TEST_SUMMARY: phage ELISA

>  <BINDER>
I065D08 (scFv) scFv: GVQLVQSGAEVKKPGASVKVSCKASGYTFTSYGISWVRQAPGQGLEWMGWISAYNGNTNYAQKLQGRVTMTTDTSTSTAYMELRSLRSDDTAVYYCARTPSSVYDLLTGYYHYFYSYMDVWGRGTMVTVSSGGGGSGGGGSGGGGSQSVLTQPASVSGSPGQSITISCTGTSSDVGGYNYVSWYQQHPGEAPKLMIYEGSKRPSGVSNRFSGSKSGNTASLTISGLQAEDEADYYCSSYTTRSTRVFGGGTKLTVLG

>  <binding result>
no binding

$$$$
>  <BINDER>
I022E02 (scFv) scFv: QVQLVQSGAEVKKPGASVMVSCKASGYTFSTYAVHWVRQAPGQGLEWMGRINAGNGYTKYSQKFQGRVTITKDTSASAAYMELSSLGSEDTALYYCARATYDPLTGYSFDGLDIWGKGTMVTVSSGGGGSGGGGSGGGGSQSVLTQPASVSGSPGQSITISCTGTSSDVGGYNYVSWYQQHPGKAPKLMIYEGSKRPSGVSNRFSGSKSGNTASLTISGLQAEDEADYYCSSYTTRSTRVFGGGTKLTVLG

>  <binding result>
no binding

$$$$
>  <BINDER>
I002A01-K (scFv) scFv: QVQLVQSGAEVKKPGSSVKVSCRASGGSFNKHAISWVRQAPGRGLEWMGGILPMYGTANYAQKFQGRVTITADKLTNTVYMDLSRLRYEDTAVYYCARELGLSIVGATTGALDMWGKGTLVTVSSGGGGSGGGGSGGGGSALPVLTQPPSVSVAPGQTATLTCGGTNFGRQSVHWYQQKPGQAPVLAIYHDDVRPSGIPERLSGSKSGNTATLTISRVEAGDEAAYYCQVWDSGSDVVVFGGGTKLTVLG

>  <binding result>
no binding

$$$$
